Reported Kd is given for each of the following binders.
# test system: (NANP)6 (Plasmodium falciparum)
# assay: BLI, target on sensor
Write down the numeric answer in pM and omit the unit.

Reference set (2 entries):
AB-007032 (antibody, V domains shown) VH: QVQLVESGGGVVQPGRSLRLSCAASGFTFSTYAMHWVRQAPGQGLQWVAVISYHSTNKYYEDSVRGRFTISRDNSKNTLYLQMNSLRAEDTAVYYCARDGYSSSFFDFWGQGTLVTVSS VL: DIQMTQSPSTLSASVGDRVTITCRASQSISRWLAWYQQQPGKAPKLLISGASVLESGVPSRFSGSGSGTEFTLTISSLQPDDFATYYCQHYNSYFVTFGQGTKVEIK; 338
AB-007070 (antibody, V domains shown) VH: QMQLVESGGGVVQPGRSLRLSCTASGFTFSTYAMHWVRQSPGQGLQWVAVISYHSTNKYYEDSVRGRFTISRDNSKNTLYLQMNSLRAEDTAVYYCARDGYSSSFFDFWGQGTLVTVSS VL: DIQMTQSPSTLSASVGDRVAITCRASQSISRWLAWYQQQPGKAPKLLMSAASVLESGVPSRFSGSGSGTEFTLTISSLQPDDFATYYCQHYNSYFVTFGQGTKVEIK; 834

Record summary for AB-007057 (antibody, V domains shown) VH: QMQLVESGGGVVQPGRSLRLSCTASGFTFSTYAMHWVRQSPGQGLQWVAVISYHSTNKYYEDSVRGRFTISRDNSKNTLYLQMNSLRAEDTAVYYCARDGYHSSFFDFWGQGTLVTVSS VL: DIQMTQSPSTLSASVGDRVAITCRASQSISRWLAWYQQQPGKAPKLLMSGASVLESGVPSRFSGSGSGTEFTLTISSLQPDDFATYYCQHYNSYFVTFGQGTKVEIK : reported Kd = 976
